Reference source for all entries: patent US20230227427A1

Reported IC50 values are given for each entry in this list.
Target: human recombinant IL-17A (Homo sapiens, UniProt Q16552)
Construct: purchased R&D Systems 7955-IL/CF
Sequence (Q16552 24-155): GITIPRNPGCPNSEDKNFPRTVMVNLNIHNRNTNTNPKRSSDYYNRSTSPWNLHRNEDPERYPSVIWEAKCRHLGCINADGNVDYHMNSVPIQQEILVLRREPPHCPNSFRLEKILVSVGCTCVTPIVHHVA
Assay: IL-17A AlphaLISA assay (block binding of IL-17A to its receptor IL-17RA)
Conditions: compounds pre-incubated with the IL-17A for 30 min (indicated by * in Table A); read-out: AlphaLISA pIC50 (converted)
// units = nM; emit number, no label

# annotated cases, reported IC50 shown
CCc1nocc1C(=O)N[C@H](C(=O)Nc1ccc(-c2c(C)noc2C)cn1)C1CCCCC1 [Example 114]	158
CCn1nccc1C(=O)N[C@H](C(=O)Nc1ccc(-c2c(C)noc2C)cn1)[C@H]1CC[C@H](C)CC1 [Example 109]	100
CCc1nocc1C(=O)N[C@H](C(=O)Nc1ccc(-c2c(Cl)cnn2C)cn1)[C@H]1CC[C@H](C)CC1 [Example 201]	79.4
Cn1nccc1C(=O)N[C@H](C(=O)Nc1ccc(-c2c(CO)cnn2C)cn1)C1CCCCCC1 [Example 182]	31.6
Cc1cnn(C)c1-c1ncc(NC(=O)[C@@H](NC(=O)c2ccnn2C)[C@H]2CC[C@H](C)CC2)cn1 [Example 156]	398

Let us move to another entry and its IC50.
// query IC50 value for entry Cc1c(-c2ccc(NC(=O)[C@@H](NC(=O)c3ccnn3C)C3CCCCC3)cc2)ccc(=O)n1C [Example 119]
501
